Target: ComD1 receptor (Streptococcus pneumoniae serotype 2)
Sequence (A0A0H2ZM50 entry or part of it): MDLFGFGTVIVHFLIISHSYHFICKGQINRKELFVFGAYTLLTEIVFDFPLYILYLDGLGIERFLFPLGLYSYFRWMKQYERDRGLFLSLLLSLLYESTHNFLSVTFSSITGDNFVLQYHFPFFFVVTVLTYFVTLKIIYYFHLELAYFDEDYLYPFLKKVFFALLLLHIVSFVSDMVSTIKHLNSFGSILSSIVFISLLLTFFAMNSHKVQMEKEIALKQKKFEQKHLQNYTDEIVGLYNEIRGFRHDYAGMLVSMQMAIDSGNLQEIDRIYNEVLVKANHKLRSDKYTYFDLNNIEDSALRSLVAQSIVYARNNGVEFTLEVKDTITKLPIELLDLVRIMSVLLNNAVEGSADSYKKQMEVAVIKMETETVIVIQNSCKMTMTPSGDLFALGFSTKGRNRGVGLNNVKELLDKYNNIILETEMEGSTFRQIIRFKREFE
Assay: cell-based
measure: EC50 (nM)
Give bare numbers, in nM.

Ask: Lab note: record EC50 of CCCC[C@H](NC(=O)[C@@H](NC(=O)[C@H](Cc1ccccc1)NC(=O)[C@H](CC(=O)O)NC(=O)[C@H](CCCNC(=N)N)NC(=O)[C@H](Cc1ccccc1)NC(=O)[C@H](Cc1ccccc1)NC(=O)[C@H](CCCCN)NC(=O)[C@H](CO)NC(=O)[C@H](CC(C)C)NC(=O)[C@H](CCCNC(=N)N)NC(=O)[C@H](CCSC)NC(=O)[C@@H](N)CCC(=O)O)[C@@H](C)CC)C(=O)N[C@@H](CCC(N)=O)C(=O)N[C@@H](CCCNC(=N)N)C(=O)N[C@@H](CCCCN)C(=O)N[C@@H](CCCCN)C(=O)O [CSP1-L13NL] tested on ComD1 receptor (Streptococcus pneumoniae serotype 2).
Result: 18.6
